- Protocol Details: Clearance of 99m-Tc-IMP-192 in BALB/c mice
- Assay type: in vivo
- Cond: BALB/c, mouse, total radioactivity; Stomach, 4 h
Where a SMILES comes first, the peptide text is derived from it. Side-chain parts run from the residue outwards. The star is where a group is joined. DTPA = O=C(O)CN(CCN(CC(=O)O)CC(=O)O)CCN(CC(=O)O)CC(=O)*; X1 = NC(=S)NN=CC(=O)*
Reported Property: tissue uptake at 4 h
State the result as a value with its unit after it.

Quick one: tissue uptake at 4 h for CC(=O)N[C@@H](CCCCNC(=O)CN(CCN(CCN(CC(=O)O)CC(=O)O)CC(=O)O)CC(=O)O)C(=O)N[C@@H](Cc1ccc(O)cc1)C(=O)N[C@@H](CCCCNC(=O)CN(CCN(CCN(CC(=O)O)CC(=O)O)CC(=O)O)CC(=O)O)C(=O)N[C@@H](CCCCNC(=O)[C@H](CS)NC(=O)C=NNC(N)=S)C(N)=O [IMP 192] (Ac-K(DTPA)YK(DTPA)K([Cys-X1])-NH2) ?
0.27 %ID/g

* * *

- Protocol Details: Pretargeting: 125-I-hMN-14 × 734 bsAb, 24 h later 99m-Tc-IMP-192, biodistribution
- Assay type: in vivo, Nude mice
- Cond: female, nude (Taconic NCRNU), mouse, total radioactivity; Kidney, 3 h post peptide
Where a SMILES comes first, the peptide text is derived from it. Side-chain parts run from the residue outwards. The star is where a group is joined. DTPA = O=C(O)CN(CCN(CC(=O)O)CC(=O)O)CCN(CC(=O)O)CC(=O)*; X1 = NC(=S)NN=CC(=O)*
Reported Property: tissue uptake at 3 h
State the result as a value with its unit after it.

Quick one: tissue uptake at 3 h for CC(=O)N[C@@H](CCCCNC(=O)CN(CCN(CCN(CC(=O)O)CC(=O)O)CC(=O)O)CC(=O)O)C(=O)N[C@@H](Cc1ccc(O)cc1)C(=O)N[C@@H](CCCCNC(=O)CN(CCN(CCN(CC(=O)O)CC(=O)O)CC(=O)O)CC(=O)O)C(=O)N[C@@H](CCCCNC(=O)[C@H](CS)NC(=O)C=NNC(N)=S)C(N)=O [IMP 192] (Ac-K(DTPA)YK(DTPA)K([Cys-X1])-NH2) ?
2.4 %ID/g

* * *

- Protocol Details: Clearance of 99m-Tc-IMP-192 in BALB/c mice
- Assay type: in vivo
- Cond: BALB/c, mouse, total radioactivity; Urine, 1 h
Where a SMILES comes first, the peptide text is derived from it. Side-chain parts run from the residue outwards. The star is where a group is joined. DTPA = O=C(O)CN(CCN(CC(=O)O)CC(=O)O)CCN(CC(=O)O)CC(=O)*; X1 = NC(=S)NN=CC(=O)*
Reported Property: excreta dose per gram or mL at 1 h

Quick one: excreta dose per gram or mL at 1 h for CC(=O)N[C@@H](CCCCNC(=O)CN(CCN(CCN(CC(=O)O)CC(=O)O)CC(=O)O)CC(=O)O)C(=O)N[C@@H](Cc1ccc(O)cc1)C(=O)N[C@@H](CCCCNC(=O)CN(CCN(CCN(CC(=O)O)CC(=O)O)CC(=O)O)CC(=O)O)C(=O)N[C@@H](CCCCNC(=O)[C@H](CS)NC(=O)C=NNC(N)=S)C(N)=O [IMP 192] (Ac-K(DTPA)YK(DTPA)K([Cys-X1])-NH2) ?
169 %ID/g
